# Test system: 743489-274-T-PDC complex spheroid growth;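 also: spheroids exposed to agents for 7 days before readout; 100% = DMSO vehicle control wells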
# measurement.protocol: Anticancer human tumor 743489-274-T-PDC patient-derived renal cell carcinoma cell line growth inhibition [AhR]
# measurement.parameters: second compound 1 µM; first compound 10 µM; stronger effect = lower value
So I've got a bunch of compounds here, and I need their viability, T/C values.
Entry rule: numbers only, all in %.

-- ask Name the recorded viability, T/C for CC1COCCN1c1cc(C2(S(C)(=N)=O)CC2)nc(-c2ccnc3[nH]ccc23)n1 (stereo unspecified) + Cc1cncc(-c2nc(NCCc3c[nH]c4ccccc34)c3ncn(C(C)C)c3n2)c1 .
-- reply 83.7

-- ask Note, next up: CC1(C)CCC(CN2CCN(c3ccc(C(=O)NS(=O)(=O)c4ccc(NCC5CCOCC5)c([N+](=O)[O-])c4)c(Oc4cnc5[nH]ccc5c4)c3)CC2)=C(c2ccc(Cl)cc2)C1 + Cc1ccccc1N=Nc1ccc(NC(=O)c2ccnn2C)c(C)c1
-- reply 78.3

-- ask Note, next up: Nc1ccn(C2OC(CO)C(O)C2(F)F)c(=O)n1 (stereo unspecified) + CC(CO)NC(=O)c1cc(-c2ccc(Cl)cc2)nn(-c2cnn(C)c2)c1=O
-- reply 71.5

-- ask Note, next up: CC(C)c1c(-c2ccccc2)nc2c(C#N)c[nH]n2c1=O + CC(CO)NC(=O)c1cc(-c2ccc(Cl)cc2)nn(-c2cnn(C)c2)c1=O
-- reply 101

-- ask Note, next up: COc1cccc2c1C(=O)c1c(O)c3c(c(O)c1C2=O)CC(O)(C(=O)CO)CC3OC1CC(N)C(O)C(C)O1 (stereo unspecified) + CC(CO)NC(=O)c1cc(-c2ccc(Cl)cc2)nn(-c2cnn(C)c2)c1=O
-- reply 45.5

-- ask Note, next up: COc1cc(Nc2ncc3c(n2)-c2ccc(Cl)cc2C(c2c(F)cccc2OC)=NC3)ccc1C(=O)O + Cc1cncc(-c2nc(NCCc3c[nH]c4ccccc34)c3ncn(C(C)C)c3n2)c1
-- reply 82.4
